protocol description: Ratio of plasma concentration in Lewis rat at 10 mg/kg, po bid measured after 8 hrs to IC50 for human ADAMTS5 in presence of rat plasma
Assay type: ADME, organism-based
experimental parameters: in vivo
reported property: Ratio

Illustrative cases are given below, each with its answer.
>  <smiles data>
CCn1ccnc1[C@]1(CNC(=O)c2cc3cc(Cl)ccc3o2)NC(=O)NC1=O

>  <Ratio>
1.2

$$$$
>  <smiles data>
CCn1ccnc1[C@]1(CNC(=O)c2cc3cc(C(F)(F)F)ccc3o2)NC(=O)NC1=O

>  <Ratio>
4.3

$$$$
>  <smiles data>
Cn1ccnc1[C@]1(CNC(=O)c2cc3cc(C(F)(F)F)ccc3o2)NC(=O)NC1=O

>  <Ratio>
6.3

$$$$

(A) O=C1NC(=O)[C@](CNC(=O)c2cc3cc(C(F)(F)F)ccc3o2)(C2CC2)N1
(B) Cc1cnc([C@]2(CNC(=O)c3cc4cc(Cl)ccc4o3)NC(=O)NC2=O)n1C
Enquiry: // task: argmin of Ratio over [ A , B ] Write the label of whichever entry you select.
Return: B
(B: 4.1, A: 24)

(a) Cc1cnc([C@]2(CNC(=O)c3cc4cc(C(F)(F)F)ccc4o3)NC(=O)NC2=O)n1C
(b) Cn1ccnc1[C@]1(CNC(=O)c2cc3cc(Cl)ccc3o2)NC(=O)NC1=O
Enquiry: // task: argmin of Ratio over [ a , b ] Write the label of whichever entry you select.
Return: b
(b: 3.3, a: 7.7)

----------
protocol description: Tmax in Lewis rat plasma at 30 mg/kg, po
Assay type: ADME, organism-based
reported property: Tmax (h)
Number in h, nothing else.

The reported Tmax of the molecule `Cn1ccnc1[C@]1(CNC(=O)c2cc3cc(C(F)(F)F)ccc3o2)NC(=O)NC1=O` was 1

----------
protocol description: Plasma concentration in Lewis rat model of MIA at […], po administered through infusion pump post 3 days MIA induction
Assay type: ADME, organism-based
reported property: concentration at 72 h (nM)
Number in nM, nothing else.

The reported concentration at 72 h of the molecule `O=C1NC(=O)[C@](CNC(=O)c2cc3cc(C(F)(F)F)ccc3o2)(C2CC2)N1` was 200

----------
target of assay: Matrix metalloproteinase-14 (Homo sapiens, UniProt P50281)
protocol description: Inhibition of human MMP14 using Mca-PQGL-(3-[2,4-dinitrophenyl]-L-2,3-diaminopropionyl)-AR-OH as substrate measured after 2 to 4 hrs by fluorescence analysis
reported property: IC50 (µM)

(1) CCn1ccnc1[C@]1(CNC(=O)c2cc3cc(Cl)ccc3o2)NC(=O)NC1=O
(2) O=C1NC(=O)[C@](CNC(=O)c2cc3cc(C(F)(F)F)ccc3o2)(C2CC2)N1
(3) Cc1cnc([C@]2(CNC(=O)c3cc4cc(C(F)(F)F)ccc4o3)NC(=O)NC2=O)n1C
Enquiry: Please list these in order of increasing IC50. Thank you! In plain terms: list the labels in the order you were asked to.
Return: 2, 1, 3

----------
target of assay: Stromelysin-1 (Homo sapiens)
Sequence (P08254 whole entry): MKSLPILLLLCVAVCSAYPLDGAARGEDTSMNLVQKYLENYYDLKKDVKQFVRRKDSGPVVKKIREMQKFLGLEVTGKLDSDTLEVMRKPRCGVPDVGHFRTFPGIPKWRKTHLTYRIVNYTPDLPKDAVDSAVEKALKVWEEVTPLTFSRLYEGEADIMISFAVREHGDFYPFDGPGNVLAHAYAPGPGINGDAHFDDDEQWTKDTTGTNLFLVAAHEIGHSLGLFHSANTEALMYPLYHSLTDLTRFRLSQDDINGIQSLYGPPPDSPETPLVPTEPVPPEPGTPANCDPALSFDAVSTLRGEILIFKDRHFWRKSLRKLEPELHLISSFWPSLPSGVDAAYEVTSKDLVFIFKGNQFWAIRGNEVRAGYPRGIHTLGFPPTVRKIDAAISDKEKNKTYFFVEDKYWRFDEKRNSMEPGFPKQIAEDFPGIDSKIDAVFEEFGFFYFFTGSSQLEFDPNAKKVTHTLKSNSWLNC
reported property: IC50 (µM)
Number in µM, nothing else.

Note to self: IC50 of `O=C1NC(=O)[C@](CNC(=O)c2cc3cc(C(F)(F)F)ccc3o2)(C2CC2)N1` with Stromelysin-1 (Homo sapiens) was 17

----------
protocol description: Lipophilicity, log P of the compound
Format: physicochemical
experimental parameters: octanol/water
reported property: logP

>  <smiles data>
O=C1NC(=O)[C@](CNC(=O)c2cc3cc(C(F)(F)F)ccc3o2)(C2CC2)N1

>  <logP>
2.29

$$$$
>  <smiles data>
Cn1ccnc1[C@]1(CNC(=O)c2cc3cc(C(F)(F)F)ccc3o2)NC(=O)NC1=O

>  <logP>
1.63

$$$$
